Hello, the source for this data is the supplement of paper PMC6757056, in case you need it.

B1: library; a variant is named by its letters at N, in order (parent)
chain: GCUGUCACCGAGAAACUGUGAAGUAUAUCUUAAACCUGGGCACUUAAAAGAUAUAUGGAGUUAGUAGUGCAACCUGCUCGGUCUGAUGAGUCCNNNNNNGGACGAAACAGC

- Variants of: B1
- testSummary: normalized RNA/DNA level with ligand (relative to sTRSVctl = 100) (log10 (% of sTRSVctl)); HEK293T; ligand: cyclic di-GMP (c-di-GMP-II aptamer); ligand concentration (+) RNA-Seq: 1 mM; higher = less ribozyme self-cleavage, higher mRNA level
- setupConditions: reporter: mCherry (pCS4076), ligand present: yes
# maps each entry to its normalized RNA/DNA level with ligand (log10)
Give the figure only, with no unit attached.

Known normalized RNA/DNA level with ligand (log10) results, listed for orientation:
>>> reportedresult("UUUCGA")
1.89
>>> reportedresult("UCUAGG")
1.88
>>> reportedresult("UAAUUA")
1.85
>>> reportedresult("ACUCGC")
1.88
>>> reportedresult("GCGUAC")
1.52
>>> reportedresult("UGUGCG")
1.93
>>> reportedresult("CGAUCC")
1.9
>>> reportedresult("GGUUCA")
1.73
>>> reportedresult("CGUGGC")
1.85
>>> reportedresult("AAUCGU")
1.81

# get_value(readout='normalized RNA/DNA level with ligand (log10)', item= CUAAGU ) 1.84

What does the data say about its normalized RNA/DNA level with ligand (log10)? Entry: GCGAUC 1.34

Consider the variant shown here: UCGUAU What is its recorded normalized RNA/DNA level with ligand (log10)? 1.76

Which normalized RNA/DNA level with ligand (log10) value belongs to GCAGCC ? 1.83

Can you look up the measured normalized RNA/DNA level with ligand (log10) of UGAAUA for me? 1.82

Request the reported normalized RNA/DNA level with ligand (log10) associated with AAGCGG 1.88
